Molecular target: T1, human LRP5 domains E3-E4 (E644-Q1263 of SEQ ID NO: 42) (human, UniProt O75197 644-1263)
T1 construct: Soluble fragment made in-house; It was biotinylated for phage sorting; also called LRP5-E3/E4; LRP5E3/E4
T1 sequence: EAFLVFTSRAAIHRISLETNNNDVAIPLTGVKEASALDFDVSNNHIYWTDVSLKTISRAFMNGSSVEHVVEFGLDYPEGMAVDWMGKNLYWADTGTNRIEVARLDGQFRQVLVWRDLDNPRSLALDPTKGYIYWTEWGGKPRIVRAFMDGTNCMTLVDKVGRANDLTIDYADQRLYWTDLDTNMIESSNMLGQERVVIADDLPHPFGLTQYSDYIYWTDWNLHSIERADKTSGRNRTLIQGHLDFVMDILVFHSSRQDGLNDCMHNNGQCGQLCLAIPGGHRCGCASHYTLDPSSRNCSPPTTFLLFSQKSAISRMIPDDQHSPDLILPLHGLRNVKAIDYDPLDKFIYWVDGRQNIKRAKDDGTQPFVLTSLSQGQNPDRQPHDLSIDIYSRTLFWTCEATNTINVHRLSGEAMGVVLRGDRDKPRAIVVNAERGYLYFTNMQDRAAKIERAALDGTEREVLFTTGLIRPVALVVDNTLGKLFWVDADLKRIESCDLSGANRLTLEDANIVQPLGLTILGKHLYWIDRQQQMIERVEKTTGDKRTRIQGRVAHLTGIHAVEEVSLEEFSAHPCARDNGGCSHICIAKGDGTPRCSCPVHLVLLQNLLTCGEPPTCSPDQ
Test: SPR, BIAcore T100, IgG captured by anti-human Fc, LRP5E3/E4 as analyte, 25 C

binder	scaleUnit	koff
YW629.42.58 (antibody, human IgG1, V domains shown, also called P6C.42.58) VH: EVQLVESGGGLVQPGGSLRLSCAASGFTFSSYAMSWVRQAPGKGLEWVGAISSPGWSTYYADSVKGRFTISRDNSKNTLYLQMNSLRAEDTAVYYCARYYRYAPYRSLGMDVWGQGTLVTVSS VL: DIQMTQSPSSLSASVGDRVTITCRASQGISSYLAWYQQKPGKAPKLLIYAASSLQSGVPSRFSGSGSGTDFTLTISSLQPEDFATYYCQQYYSYPFTFGQGTKVEIKR	s⁻¹	8.69e-05

Values from patent US20190010228A1
